// reported Kd(TARc)/Kd(RRE) for each item listed
biological target: TARc hairpin; test: SPR binding specificity relative to control TARc hairpin; set-up: species or system HIV-1; settings: 25° C., pH 6.3

Exercise: Dear colleague, I am looking for the recorded Kd(TARc)/Kd(RRE) of the following compound: COc1cc(CCN)c(-c2ccc(-c3cc(CCN)c(OCc4ccccc4)c(CCN)c3)c(OC)c2)c(CCN)c1 [IIS-311]
Solution: 3.2

Exercise: Kd(TARc)/Kd(RRE) for COc1cc(CCN)c(-c2ccc(-c3cc(CCN)c(O)c(CCN)c3)cc2)c(CCN)c1 [JB-399] ?
Solution: 11.7

Exercise: If you can, please state the reported Kd(TARc)/Kd(RRE) value of COc1cc(CCN)c(-c2cc(CCN)c(O)c(CCN)c2)c(CCN)c1 [JB-398] .
Solution: 3.7

Exercise: Return reported Kd(TARc)/Kd(RRE); argument: COc1cc(CCN)c(-c2ccc(-c3cc(CCN)c(O)c(CCN)c3)c(OC)c2)c(CCN)c1 [IIS-358]
Solution: 6.0

--- query ---
Exercise: For the compound COc1cc(CCN)c(-c2ccc(-c3cc(CCN)c(OCC4CCCCC4)c(CCN)c3)c(OC)c2)c(CCN)c1 [IIS-530] , what Kd(TARc)/Kd(RRE) is on record?
Solution: 4.0

====

IC50 values by entry
target: RRE-Rev34-50 interaction (RRE hairpin and frevp); assay: Fluorescence polarization displacement assay of the RRE-Rev34-50 interaction; assay type: binding, HIV-1; details: read-out: IC50 (RRE-Rev 50% inhibitory concentration); fluorescence polarization, 25° C., 60 nM RRE and 10 nM frevp
Value expressed in µM; do not type the unit.

Example cases with answers are listed next.
Exercise: If you can, please state the reported IC50 value of COc1cc(CCN)c(-c2ccc(-c3cc(CCN)c(O)c(CCN)c3)c(OC)c2)c(CCN)c1 [IIS-358] .
Solution: 808

Exercise: What value of measured IC50 is listed for CCc1cc(-c2c(CCN)cc(OC)cc2CCN)cc(CC)c1-c1cc(CCN)c(OCc2ccccc2)c(CCN)c1 [IIS-771] ?
Solution: 77.2

Exercise: Returns the measured IC50 for the input compound. Input: COc1cc(CCN)c(-c2cc(C)c(-c3cc(CCN)c(OCc4ccccc4)c(CCN)c3)c(C)c2)c(CCN)c1 [IIS-375]
Solution: 32.2

***
Exercise: Name the recorded IC50 for COc1cc(CCN)c(-c2ccc(-c3cc(CCN)c(OCC4CCCCC4)c(CCN)c3)c(OC)c2)c(CCN)c1 [IIS-530] .
Solution: 75.5

====

system: Staphilococcus aureus (ATCC 35556); assay: Disk diffusion assay (Kirby-Bauer), S. aureus; type: cell-based; details: disk potency 20 μg, 8 mm discs, 16-18 hours at 37° C.
Measurement Kind: disk susceptibility of S. aureus (diameter of the inhibition area)

Study these solved cases before continuing.
Exercise: // returns reported disk susceptibility of S. aureus (diameter of the inhibition area) for input COc1cc(CCN)c(-c2c(CCN)cc(OC)cc2CCN)c(CCN)c1 [SC-30]
Solution: inactive

Exercise: Requested read-out: disk susceptibility of S. aureus (diameter of the inhibition area). Entry: NCCc1cc(-c2cc(CCN)c(O)c(CCN)c2)cc(CCN)c1O [JB-391]
Solution: inactive

Exercise: Give the measured disk susceptibility of S. aureus (diameter of the inhibition area) of NC[C@H]1O[C@H](O[C@H]2[C@H](O)[C@@H](O[C@H]3O[C@H](CO)[C@@H](O)[C@H](N)[C@H]3O)[C@H](N)C[C@@H]2N)[C@H](N)C[C@@H]1O [Tobramycin, tobramycin] .
Solution: 17.6 ± 0.8

Exercise: Which disk susceptibility of S. aureus (diameter of the inhibition area) is reported for this compound? NC[C@@H]1O[C@H](O[C@H]2[C@@H](O)[C@H](O[C@@H]3[C@@H](O)[C@H](N)C[C@H](N)[C@H]3O[C@H]3O[C@H](CN)[C@@H](O)[C@H](O)[C@H]3N)O[C@@H]2CO)[C@H](N)[C@@H](O)[C@@H]1O [Neomycin B, neomycin B, reference compound]
Solution: 12.8 ± 1.9

Exercise: Requested read-out: disk susceptibility of S. aureus (diameter of the inhibition area). Entry: CC1(C)S[C@@H]2[C@H](NC(=O)[C@H](N)c3ccccc3)C(=O)N2[C@H]1C(=O)O [Ampicillin, ampicillin]
Solution: 38.1 ± 1.6

***
Exercise: Can you share its disk susceptibility of S. aureus (diameter of the inhibition area)? I mean this compound: COc1cc(CCN)c(-c2ccc(-c3cc(CCN)c(O)c(CCN)c3)c(OC)c2)c(CCN)c1 [IIS-358]
Solution: inactive

Where these numbers come from: patent US9586943B2
